Test system: SNB-75
Assay: NCI tumour cell line growth inhibition, 48 h
The source made the active and inactive calls. Cut-off read from the data, not from the text of the source: active = GI50 up to about 1.1 µM and inactive = higher.
property-label: GI50

Report GI50 for `COc1ccc2nc(NC(=O)C(=O)CC(=O)c3ccc(Cl)cc3)sc2c1` please.
29.4 µM (inactive)

Report GI50 for `O=C(c1ccc2ccccc2c1)N(Cc1cccnc1)C(=S)N(Cc1cccnc1)C(=O)c1ccc2ccccc2c1` please.
24.9 µM (inactive)

Report GI50 for `OC/C=C(\I)CCCOCOCc1ccccc1` please.
53.1 µM (inactive)

Report GI50 for `Nc1cc(OCc2ccccc2)c(OCc2ccccc2)cc1C=O` please.
52.8 µM (inactive)

Report GI50 for C/C(=N\OCC(O)CNCCSCc1ccccc1)c1ccccc1Cl (stereo not given) please.
21.4 µM (inactive)
